Where these numbers come from: PubChem BioAssay (NCI)

tested on: SF-295 CNS; experiment: NCI-60 one-dose screen, 48 h (100 = growth as untreated, 0 = no growth, -100 = all killed); conditions: 10 µM unless noted
This is part of a sample that, as a whole, favours compounds with a hit. Of some 83,000 tested, about 20% had one in any assay.
Think of 90% as a floor: if growth stands on it or above, it is met; beneath it, not met.

Here are 4 compounds together with their reported answers.
>  <Compound>
O=C1C=CC(=O)N1c1cccc(Cl)c1

>  <Group Label>
met

$$$$
>  <Compound>
CC(=O)N1N=C(c2ccc(-n3ccc(C(F)(F)F)n3)c(F)c2)CC1c1ccc[nH]1 (stereo not given)

>  <Group Label>
met

$$$$
>  <Compound>
Cc1ccc(C(=O)/C(=C/c2ccc([N+](=O)[O-])cc2)SCc2ccc(Cl)cc2)cc1

>  <Group Label>
not met

$$$$
>  <Compound>
Cc1ccc(CNc2c3ccccc3nc3cc(NC(=O)CCN4CCCC4)ccc23)cc1

>  <Group Label>
not met

$$$$

Given the entry Cc1ccc(-n2c3c(c(-c4ccccc4)c2-c2ccccc2)C2=NCCN2C=N3)cc1 , answer whether its growth meets or surpasses 90%.
met

Given the entry N#C/C(=C\c1cccc(C#N)c1)c1ccccc1 , answer whether its growth meets or surpasses 90%.
met

Given the entry CNC(=O)c1cccc(Cn2nc(C)c(NC(=O)c3ccc(COc4ccc(C(F)(F)F)cc4C)cc3)c2C)c1 , answer whether its growth meets or surpasses 90%.
not met

Given the entry COc1ccc(-c2[nH][nH]c(=O)c2-c2nc3ccccc3s2)cc1 , answer whether its growth meets or surpasses 90%.
met
